- Target: SARS-CoV-2 S-protein RBD (SARS-CoV-2, UniProt P0DTC2)
- Test Protocol: SPR
- Conditions Used: both partners purified
Quantity: pKd
Entry type: numeric. Quantity: pKd, the -log10 of concentration in molar units.

Please give the measured pKd for this binder: KKKKKKDKFNHEAEDLFY (also called 6K-modified AYn1 peptide) [S-protein neutralizing peptide AYn1]
7.02
